The origin of these recorded values is ChEMBL document CHEMBL1201862.

System: SNB-19
Test: NCI tumour cell line growth inhibition, 48 h
Activity calls are given as the source filed them. No stated cut-off is given here; in the data, active = GI50 up to about 1.1 µM and inactive = higher.
Assign GI50 to each entry below.

Solved cases (6 shown):
[N-]=[N+]=Nc1cc(=O)n(-c2ccccc2)c(=O)n1-c1ccccc1 = > 100 µM (inactive)
CNc1ccc2c(c1)[C@@]1(C)c3ccccc3[C@@H](C2)N1C = 37.8 µM (inactive)
O/N=C\C(=N/O)Nc1ccc(Cc2ccc(NC(/C=N\O)=N/O)cc2)cc1 = 97.9 µM (inactive)
O=c1cc(N2CCOCC2)[nH]c(=O)n1-c1cccc(Cl)c1 = > 100 µM (inactive)
O=[N+]([O-])c1ccc2[nH]nc(OCc3ccccn3)c2c1 = 50.5 µM (inactive)
N#Cc1sc2c(c1OC(=O)c1ccc(Cl)cc1)c(=O)n(-c1ccccc1)c(=S)n2-c1ccccc1 = 21.9 µM (inactive)

Return reported GI50 values for all items listed beneath this line.
1. COc1ccc([C@@]23CCC(=O)C[C@@H]2N(C)CC3)cc1OC
2. CC1=NC(=Cc2cccc(Cl)c2)C(=O)N1n1c(-c2ccccc2)nc2ccccc2c1=O
3. N#Cc1cccnc1Cl
4. O=C(NC1=C(Cl)C(=O)c2ccccc2C1=O)c1ccccc1
5. COc1cc(NCCC(=O)O)c2ncccc2c1

## Result
1. > 100 µM (inactive)
2. 59.2 µM (inactive)
3. > 100 µM (inactive)
4. 54.2 µM (inactive)
5. > 100 µM (inactive)
